Where do the numbers come from? From patent US11377442B2.

# System: Renilla_ERa
# ASSAY DETAILS: Renilla signal in ERα counterscreen (Renilla_ERa)
# Assay type: cell-based
# CONDITION DETAILS: 2 uM; read-out: Renilla ERalpha transient, cmpd/DMSO (mean)
ENDPOINT: fold induction at 2 µM

Form: Entry = CC1CCN(c2nc(NCCN3CCOCC3)nc(N3CC4CC(C3)c3cccc(=O)n3C4)n2)CC1 (centres unmarked) | System = Renilla_ERa | fold induction at 2 µM = ____
1.1

Requested read-out fold induction at 2 µM, target or system Renilla_ERa, entry N#Cc1c(C(F)(F)F)nc2ccc(Oc3ccccc3)cc2c1N1CCNCC1
1.1

Short answer please: fold induction at 2 µM, Renilla_ERa, entry N#Cc1c(C(F)(F)F)nc2ccc(Cl)cc2c1NC1CC1
1.1

I'm curious: which fold induction at 2 µM was measured for Cc1cc(-c2ccccc2)nc(Nc2nc(-c3ccccc3)c(CC(=O)O)s2)n1 tested on Renilla_ERa?
1.2

What measured fold induction at 2 µM is associated with O=c1cccc2n1CC1CC2CN(c2nc(NCCC3=CCCCC3)nc(N3CCCC3)n2)C1 (centres unmarked) on Renilla_ERa?
1.2

* * *

# TARGET ENTITY: NR2F6 (Homo sapiens)
# Construct: expressed in transfected cells; also transient transfection
# Sequence (P10588 1-404): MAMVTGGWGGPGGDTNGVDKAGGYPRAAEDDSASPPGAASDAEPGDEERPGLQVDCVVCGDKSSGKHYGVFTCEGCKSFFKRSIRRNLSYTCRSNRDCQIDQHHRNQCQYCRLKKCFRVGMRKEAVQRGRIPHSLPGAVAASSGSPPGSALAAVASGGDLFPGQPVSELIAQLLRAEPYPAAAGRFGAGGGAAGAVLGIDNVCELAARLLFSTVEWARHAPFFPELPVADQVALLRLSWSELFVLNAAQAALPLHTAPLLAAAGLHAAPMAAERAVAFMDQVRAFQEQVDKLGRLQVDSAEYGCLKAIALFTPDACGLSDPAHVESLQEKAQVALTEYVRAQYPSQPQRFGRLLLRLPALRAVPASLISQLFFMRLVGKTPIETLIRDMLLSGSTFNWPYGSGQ
# ASSAY DETAILS: NR2F6 agonist screening, Firefly signal cmpd/DMSO
# Format: cell-based
# CONDITION DETAILS: Table 12; repeat 2
Classification by Firefly, cmpd/DMSO repeat 2 follows these ranges: low bin: < 8; mid bin: ≥ 8 and < 20; high bin: ≥ 20

In plain terms, what class is Cc1ccc(S(=O)(=O)c2cc3cc(C(=O)NCCc4ccccc4)ccc3oc2=O)cc1 ?
mid bin

Could you place COc1ccc(S(=O)(=O)c2cc3cc(Cl)ccc3oc2=O)cc1OC in its proper category? Many thanks.
high bin

Please indicate the class for Cc1cccc(NC(=O)c2ccc3oc(=O)c(S(=O)(=O)c4ccc(Cl)cc4)cc3c2)c1C based on its Firefly, cmpd/DMSO repeat 2.
high bin

Which class holds COC(=O)c1ccc2oc(=O)c(S(=O)(=O)c3ccccc3)cc2c1 ?
high bin

// return the class label for CCOc1cccc2cc(S(=O)(=O)c3cc(F)cc(F)c3)c(=O)oc12
mid bin

Please classify: O=c1oc2ccccc2cc1S(=O)(=O)c1ccccc1F
low bin

Could you place Cc1ccc(S(=O)(=O)c2cc3cc(Cl)ccc3oc2=O)cc1 in its proper category? Many thanks.
mid bin

Input CCOc1cccc2cc(S(=O)(=O)c3ccccc3F)c(=O)oc12 ; output its category
low bin

Quick check: band for COc1ccc(S(=O)(=O)c2cc3ccccc3oc2=O)cc1
low bin

GET /class?item= COC(=O)c1ccc2oc(=O)c(S(=O)(=O)c3ccc(C)cc3)cc2c1
mid bin

Classify this compound: COC(=O)c1ccc2oc(=O)c(S(=O)(=O)c3ccc(OC)cc3)cc2c1
mid bin
